targetOfAssay: T1, A56.hFc (Vaccinia virus, Wyeth strain, UniProt P20978 17-279)
T1 construct: also called A56 human Fc fusion protein; A56 protein
T1 chain: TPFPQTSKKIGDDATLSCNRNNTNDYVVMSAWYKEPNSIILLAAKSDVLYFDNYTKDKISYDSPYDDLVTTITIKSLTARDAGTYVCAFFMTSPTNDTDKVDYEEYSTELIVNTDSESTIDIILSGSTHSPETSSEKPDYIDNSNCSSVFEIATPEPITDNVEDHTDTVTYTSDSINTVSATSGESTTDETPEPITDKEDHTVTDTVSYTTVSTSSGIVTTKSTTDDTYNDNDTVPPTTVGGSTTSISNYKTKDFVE
assayName: SPR Biacore T200, antibody amine-coupled, […]
recordedMetric: Kd (nM)
Return type: number; implicit unit nM.

Provide one value: measured Kd of A050 (antibody, V domains shown, also called A050 (A56); anti-A56 rabbit antibody A050 hIgG1) VH: QSLEESGGDLVKPGASLTLTCTASGFSFSSSYWLCWARQAPGKGPEWIACIYNGDGSTHYASWAKGRFTISKSSSTTVTLQMTSLTAADTATYFCARDYTYNFYTYGFNLWGPGTLVTVSS VL: FELTQTPSSVEAAVGGTVTINCQASQSVNIWASWYQQKPGQPPKLLIYKASTLASGVPSRFKGSGSGTEFTLTISDLECADAATYYCQGGYPSSSSGWAFGGGTEVVVK
0.507
